Tested on: RAW-Dual
protocol description: NF-kB SEAP reporter activity, fold change vs agonist alone; higher = enhanced NF-kB activity
test parameters: library stock concentration (final ~1000-fold dilution): 10 mM; cytotoxicity flag (confluency mask): cytotoxic (confluency <70% of control); agonist: Imiquimod (TLR7) […]
In all, about 2,900 compounds were measured (“NF-kB SEAP reporter activity, fold change vs agonist alone”: median about 0.99, highest 2% from about 2.6 on). The list comes from a sample in which the highest values are over-represented; it also holds close analogues and randomly drawn compounds.
Quick rule for you: NF-kB SEAP reporter activity under 0.3 gets True, anything else gets False.

{"columns": ["molecule", "assigned label"],
 "data": [
  ["CNCCCC1c2ccccc2C=Cc2ccccc21.Cl", "False"],
  ["COc1ccc(-c2ccc3ncc4c(c3c2)n(-c2ccc(N3CCNCC3)c(C(F)(F)F)c2)c(=O)n4C)cn1.O=C(O)/C=C\\C(=O)O", "True"],
  ["COc1cc2ncnc(Nc3cccc(Cl)c3)c2cc1OC", "False"],
  ["COc1cc(OC)cc(N(CCNC(C)C)c2ccc3ncc(-c4cnn(C)c4)nc3c2)c1", "False"],
  ["CCC(N)CNc1ccnc(-c2cc(-c3cnn(C)c3)ccc2O)n1.Cl.Cl (stereo not drawn)", "True"],
  ["CN(CCNc1ccnc2cc(Cl)ccc12)CCNc1ccnc2cc(Cl)ccc12.Cl.Cl.Cl", "False"],
  ["CC/C=C\\C/C=C\\C/C=C\\C/C=C\\C/C=C\\C/C=C\\CCC(=O)NCCNC(=O)c1ccccc1O", "True"],
  ["CS(=O)(=O)O.Cn1cc(C2=C(c3cn(CCCSC(=N)N)c4ccccc34)C(=O)NC2=O)c2ccccc21", "True"]
]}

Does the reported NF-kB SEAP reporter activity of CCc1ccc(OCc2ccccc2C(=O)Nc2ccc3nc(C)cc(N)c3c2)cc1.Cl stay below 0.3? True

Does the reported NF-kB SEAP reporter activity of O=C(Nc1cc(C(F)(F)F)ccc1C(F)(F)F)c1cc(Br)ccc1O stay below 0.3? True

====

Measured NF-kB SEAP reporter activity by item
System: RAW-Dual
protocol description: NF-kB SEAP reporter activity, fold change vs agonist alone; cytotoxicity flag (confluency mask): not cytotoxic; higher = enhanced NF-kB activity
test parameters: agonist: LPS (TLR4) 0.1 ug/mL
Over roughly 2,900 compounds, “NF-kB SEAP reporter activity, fold change vs agonist alone” has its median near 0.99; the highest 2% begin near 2.6. The full list was thinned out, with the highest values kept by preference.
Respond using a number only.

Here's what some known entries look like.
{"columns": ["compound", "property name", "value measured"],
 "data": [
  ["CC(ONC(=O)c1cc(C(F)(F)F)cc(C(F)(F)F)c1)C(=O)Nc1ccc(Cl)cc1 (stereo not given) (library stock concentration (final ~1000-fold dilution): 10 mM)", "NF-kB SEAP reporter activity", 1.45],
  ["Cc1oncc1C(=O)Nc1ccc(C(F)(F)F)cc1 (library stock concentration (final ~1000-fold dilution): 10 mM)", "NF-kB SEAP reporter activity", 0.926],
  ["CNC1C(O)C(OC2C(NC(=O)C(O)CN)CC(N)C(OC3OC(CN)C(O)C(O)C3O)C2O)OCC1(C)O.O=S(=O)(O)O (stereo not given) (library stock concentration (final ~1000-fold dilution): 10 mM water)", "NF-kB SEAP reporter activity", 1.03]
]}

Read off the recorded NF-kB SEAP reporter activity for CN1C(CC(=O)c2ccccc2)CCCC1CC(O)c1ccccc1.Cl (stereo not given) (library stock concentration (final ~1000-fold dilution): 10 mM) 1.18

Read off the recorded NF-kB SEAP reporter activity for CO[C@H](c1c(NC(=O)Nc2cnc(-n3nccn3)c(Cl)c2)cnc2cc(Cl)nn12)[C@@H](C)OC (library stock concentration (final ~1000-fold dilution): 10 mM) 1.37

====

System: RAW-Dual
protocol description: NF-kB SEAP reporter activity, fold change vs agonist alone; cytotoxicity flag (confluency mask): not cytotoxic; higher = enhanced NF-kB activity
test parameters: agonist: LPS (TLR4) 0.1 ug/mL
In all, about 2,900 compounds were measured (“NF-kB SEAP reporter activity, fold change vs agonist alone”: median about 0.99, highest 2% from about 2.6 on). This excerpt belongs to a sample that is enriched for the highest values.
Measured NF-kB SEAP reporter activity by item
Respond using a number only.

{"columns": ["compound", "NF-kB SEAP reporter activity"],
 "data": [
  ["COC(=O)c1ccc(O)c(O)c1 (library stock concentration (final ~1000-fold dilution): 10 mM)", 0.81],
  ["CN(c1ncccc1CNc1nc(Nc2ccc3c(c2)CC(=O)N3)ncc1C(F)(F)F)S(C)(=O)=O.O=S(=O)(O)c1ccccc1 (library stock concentration (final ~1000-fold dilution): 10 mM)", 0.207],
  ["COc1ccc(F)c(F)c1C(=O)c1cnc(NC2CCN(S(C)(=O)=O)CC2)nc1N (library stock concentration (final ~1000-fold dilution): 10 mM)", 0.194]
]}

Read off the recorded NF-kB SEAP reporter activity for NCC1OC(OC2C(CO)OC(OC3C(O)C(N)CC(N)C3OC3OC(CO)C(O)C(O)C3N)C2O)C(N)C(O)C1O.O=S(=O)(O)O (stereo unspecified) (library stock concentration (final ~1000-fold dilution): 10 mM water) 1.05

Read off the recorded NF-kB SEAP reporter activity for O=C1c2c(O)cc(O)cc2OC(c2cc(O)c(O)c(O)c2)C1O (stereo unspecified) (library stock concentration (final ~1000-fold dilution): 10 mM) 0.954

Read off the recorded NF-kB SEAP reporter activity for CN1c2ccccc2C(=O)Nc2cnc(Nc3ccc(N4CCC(O)CC4)cc3)nc21 (library stock concentration (final ~1000-fold dilution): 10 mM) 1.91

====

System: RAW-Dual
protocol description: NF-kB SEAP reporter activity, fold change vs agonist alone; cytotoxicity flag (confluency mask): not cytotoxic; higher = enhanced NF-kB activity
test parameters: agonist: ODN 1826 (TLR9) 0.5 ug/mL
Whole data set: some 2,900 compounds, median “NF-kB SEAP reporter activity, fold change vs agonist alone” near 0.99, cut for the highest 2% near 2.6. This is one part of a sample in which the highest values are shown more often than they occur.
property name: NF-kB SEAP reporter activity
Respond using a number only.

{"columns": ["molecule", "value measured"],
 "data": [
  ["CN(C)C(=O)CCSC(SCCC(=O)O)c1cccc(C=Cc2ccc3ccc(Cl)cc3n2)c1 (stereo unspecified) (library stock concentration (final ~1000-fold dilution): 10 mM)", 1.12],
  ["CNCCN1CCC(OCc2ccccc2)CC1.Cl.Cl (library stock concentration (final ~1000-fold dilution): 10 mM)", 1.45],
  ["Nc1nc(F)nc2c1ncn2C1OC(COP(=O)(O)O)C(O)C1O (stereo unspecified) (library stock concentration (final ~1000-fold dilution): 10 mM)", 1.01],
  ["CC(C)C(NC(=O)c1ccc2ccccc2n1)C(=O)NC(CC(=O)O)C(=O)COc1c(F)cccc1F (stereo unspecified) (library stock concentration (final ~1000-fold dilution): 10 mM)", 1.05],
  ["CC12CCC3C(CCC4C(C)(C(=O)O)CCCC34C)(CC1=O)C2 (stereo unspecified) (library stock concentration (final ~1000-fold dilution): 10 mM)", 1.11]
]}

Please look at CC(=O)OC1CCC2(C)C(=CCC3C2CCC2(C)C(c4cccnc4)=CCC32)C1 (stereo unspecified) (library stock concentration (final ~1000-fold dilution): 10 mM) and tell me its recorded NF-kB SEAP reporter activity on RAW-Dual. 1.06

====

System: RAW-Dual
protocol description: NF-kB SEAP reporter activity, fold change vs agonist alone; cytotoxicity flag (confluency mask): cytotoxic (confluency <70% of control); higher = enhanced NF-kB activity
test parameters: agonist: Pam2CSK4 (TLR2/6) 0.1 ug/mL
The full ranking holds about 2,900 compounds; the median of “NF-kB SEAP reporter activity, fold change vs agonist alone” is about 0.99, and the highest 2% start at about 2.6. This is one part of a sample in which the highest values are shown more often than they occur.
Measured NF-kB SEAP reporter activity by item
Respond using a number only.

Here's what some known entries look like.
{"columns": ["compound", "NF-kB SEAP reporter activity"],
 "data": [
  ["Cc1[nH]c(/C=C2\\C(=O)Nc3ccc(S(=O)(=O)Cc4c(Cl)cccc4Cl)cc32)c(C)c1C(=O)N1CCCC1CN1CCCC1 (stereo not given) (library stock concentration (final ~1000-fold dilution): 10 mM)", 0.551],
  ["CCC1C(=O)N(C)c2cnc(Nc3ccc(C(=O)NC4CCN(C)CC4)cc3OC)nc2N1C1CCCC1 (stereo not given) (library stock concentration (final ~1000-fold dilution): 10 mM)", 1.54],
  ["CCOC(=O)C1=C(COCCN)NC(C)=C(C(=O)OC)C1c1ccccc1Cl.O=S(=O)(O)c1ccccc1 (stereo not given) (library stock concentration (final ~1000-fold dilution): 10 mM)", 0.907]
]}

Read off the recorded NF-kB SEAP reporter activity for CCn1cc(-c2cccc(C(F)(F)F)c2)c2sc(C(=N)NC3CCS(=O)(=O)CC3)cc2c1=O (library stock concentration (final ~1000-fold dilution): 10 mM) 1.15

Read off the recorded NF-kB SEAP reporter activity for COc1cc(C(=O)NC2CCN(C)CC2)ccc1Nc1ncc2c(n1)N(C1CCCC1)CC(F)(F)C(=O)N2C (library stock concentration (final ~1000-fold dilution): 10 mM) 1.3
